Test System: PI3K β (Homo sapiens)
Construct: Full length p110 subunits of PI3K α, β and δ, N-terminally labeled with polyHis tag; polyHis (N)
Sequence (P42338 whole entry): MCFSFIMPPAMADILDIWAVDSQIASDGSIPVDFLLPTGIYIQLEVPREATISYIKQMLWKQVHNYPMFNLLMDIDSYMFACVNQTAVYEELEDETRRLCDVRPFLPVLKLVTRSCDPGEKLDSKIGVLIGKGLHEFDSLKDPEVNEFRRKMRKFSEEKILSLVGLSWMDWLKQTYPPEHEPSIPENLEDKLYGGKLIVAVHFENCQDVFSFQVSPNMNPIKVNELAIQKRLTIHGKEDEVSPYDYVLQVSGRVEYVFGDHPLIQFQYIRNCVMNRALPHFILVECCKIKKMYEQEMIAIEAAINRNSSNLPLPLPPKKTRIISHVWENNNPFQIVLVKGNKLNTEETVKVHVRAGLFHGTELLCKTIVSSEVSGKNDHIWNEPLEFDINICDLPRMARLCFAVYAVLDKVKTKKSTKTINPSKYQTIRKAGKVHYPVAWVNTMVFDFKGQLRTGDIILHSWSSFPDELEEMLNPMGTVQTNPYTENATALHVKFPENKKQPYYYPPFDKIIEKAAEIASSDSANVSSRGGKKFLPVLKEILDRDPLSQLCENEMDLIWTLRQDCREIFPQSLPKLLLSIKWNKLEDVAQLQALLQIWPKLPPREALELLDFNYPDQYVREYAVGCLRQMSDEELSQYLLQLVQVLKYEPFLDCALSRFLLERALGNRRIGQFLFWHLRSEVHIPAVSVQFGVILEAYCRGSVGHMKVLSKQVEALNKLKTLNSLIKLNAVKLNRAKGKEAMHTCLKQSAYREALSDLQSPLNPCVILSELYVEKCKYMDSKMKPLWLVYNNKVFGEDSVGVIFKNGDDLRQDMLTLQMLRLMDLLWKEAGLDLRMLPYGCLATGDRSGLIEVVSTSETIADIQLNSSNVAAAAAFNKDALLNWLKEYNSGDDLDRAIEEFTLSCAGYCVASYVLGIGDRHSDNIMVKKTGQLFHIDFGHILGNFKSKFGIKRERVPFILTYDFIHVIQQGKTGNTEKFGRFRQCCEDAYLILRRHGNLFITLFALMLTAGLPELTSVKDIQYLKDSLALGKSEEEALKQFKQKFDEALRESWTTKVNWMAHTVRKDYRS
Sequence (P27986 whole entry partner): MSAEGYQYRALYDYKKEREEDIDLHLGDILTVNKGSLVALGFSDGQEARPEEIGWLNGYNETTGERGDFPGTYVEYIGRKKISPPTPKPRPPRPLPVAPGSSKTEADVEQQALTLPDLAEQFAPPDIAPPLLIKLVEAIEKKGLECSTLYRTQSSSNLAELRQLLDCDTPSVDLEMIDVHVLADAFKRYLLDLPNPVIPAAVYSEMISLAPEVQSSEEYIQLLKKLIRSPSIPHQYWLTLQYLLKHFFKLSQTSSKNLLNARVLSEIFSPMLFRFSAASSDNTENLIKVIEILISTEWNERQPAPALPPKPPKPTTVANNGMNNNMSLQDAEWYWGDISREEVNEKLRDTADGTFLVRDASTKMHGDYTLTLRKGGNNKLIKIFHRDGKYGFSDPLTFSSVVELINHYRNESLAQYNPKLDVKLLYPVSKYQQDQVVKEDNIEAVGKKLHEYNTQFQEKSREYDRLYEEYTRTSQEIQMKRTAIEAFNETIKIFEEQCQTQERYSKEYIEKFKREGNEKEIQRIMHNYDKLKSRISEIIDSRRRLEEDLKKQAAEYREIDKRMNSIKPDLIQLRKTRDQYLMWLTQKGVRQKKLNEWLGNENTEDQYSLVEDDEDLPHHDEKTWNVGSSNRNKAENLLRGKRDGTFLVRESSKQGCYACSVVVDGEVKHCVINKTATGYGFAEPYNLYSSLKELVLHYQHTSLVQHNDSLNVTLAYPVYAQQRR
Protocol Description: In vitro PI3 kinase enzyme assay (beta), ATP loss, bioluminescence;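 also: purified p110β/p85 heterodimer with PtdIns(4,5)P2 as acceptor, incubated at room temperature, leftover ATP read by luminescence, inhibition scaled to compound-free wells with and without enzyme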
Protocol Conditions: read-out: PI3Kβ ATP loss IC50
pIC50: −log10 of the molar value.
Value Kind: pIC50

{"columns": ["Compound Structure", "Recorded Measurement"],
 "data": [
  ["CC(=O)Nc1nc2ccc(-c3ccnc(NS(=O)(=O)c4ccc(C)cc4)c3)cc2s1", 6.92],
  ["CC(=O)Nc1nc2ccc(-c3cncc(OCCN4CCOCC4)c3)cc2s1", 4.72],
  ["CC(=O)Nc1nc2ccc(-c3ccnc(N(C)S(=O)(=O)c4ccc(C)c(C)c4)n3)cc2s1", 7.41],
  ["COCC(=O)Nc1nc2ccc(-c3cnc(Cl)c(NC(C)C)c3)cc2s1", 5.80],
  ["CC(=O)Nc1nc2ccc(-c3cccc(S(=O)(=O)c4cccc(F)c4)n3)cc2s1", 5.48],
  ["CC(=O)Nc1nc2ccc(-c3ccc(OC(F)F)nc3)cc2s1", 5.09],
  ["CC(=O)Nc1nc2ccc(-c3ccnc(OCc4ccc(F)cc4)n3)cc2s1", 5.10],
  ["COCCCNc1nccc(-c2ccc3nc(NC(C)=O)sc3c2)n1", 4.69]
]}

[I] CC(=O)Nc1nc2ccc(-c3cnc(Cl)c(NS(=O)(=O)c4cccc(Cl)c4)c3)cc2s1
[II] CC(C)(C)OC(=O)Nc1nc2ccc(-c3nnc(NCc4ccccc4)o3)cc2s1
[III] COc1ccncc1-c1ccc2nc(NC(C)=O)sc2c1
[IV] CC(=O)Nc1nc2c(F)cc(-c3cccc(S(=O)(=O)c4ccccc4F)n3)cc2s1
[V] CC(=O)Nc1nc2ccc(-c3cncc(NS(=O)(=O)c4ccc(C(F)(F)F)cc4)c3)cc2s1
Query: Arrange the 5 compounds by rising pIC50, starting with the smallest. Write the labels out in the order the request specifies.
Response: III, II, IV, V, I
(III: 4.97, II: 5.57, IV: 5.94, V: 7.80, I: 8.09)

[a] CC(=O)Nc1nc2ccc(-c3cnc(Cl)c(NC(C)C)c3)cc2s1
[b] COCCNc1nccc(-c2ccc3nc(NC(C)=O)sc3c2)n1
Query: Endpoint returns the identifier whose pIC50 is numerically larger, either a or b . Give the chosen item's label as your response.
Response: a
(a: 6.42, b: 4.74)

----------
Test System: PI3K α (Homo sapiens)
Construct: Full length p110 subunits of PI3K α, β and δ, N-terminally labeled with polyHis tag; polyHis (N)
Protocol Description: In vitro PI3 kinase enzyme assay (alpha), ATP loss, bioluminescence
Protocol Conditions: read-out: PI3Kα ATP loss IC50
pIC50: −log10 of the molar value.
Value Kind: pIC50

Some molecules with known pIC50 results, for comparison:
{"columns": ["Compound Structure", "pIC50"],
 "data": [
  ["Nc1nc2ccc(-c3cccc(NS(=O)(=O)c4ccccc4)n3)cc2s1", 5.42],
  ["COc1nccc(-c2ccc3nc(NC(C)=O)sc3c2)n1", 6.30],
  ["CN(C)c1cc(-c2ccc3nc(NC(=O)NCCN4CCOCC4)sc3c2)cnc1Cl", 6.94],
  ["CC(=O)Nc1nc2ccc(-c3cnc(Cl)c(NS(=O)(=O)c4cc(F)cc(F)c4)c3)cc2s1", 7.99],
  ["CCOc1cc(-c2ccc3nc(NC(C)=O)sc3c2)cnc1Cl", 7.27]
]}

[I] CC(=O)Nc1nc2ccc(-c3cnc(C)c(NS(=O)(=O)c4ccc(F)cc4)c3)cc2s1
[II] CC(=O)Nc1nc2ccc(-c3ccnc(Nc4ccccn4)n3)cc2s1
[III] CC(=O)Oc1cc(-c2ccc3ncsc3c2)cnc1Cl
Query: Arrange the 3 molecules by rising pIC50, starting with the smallest. Write the labels out in the order the request specifies.
Response: II, III, I
(II: 5.60, III: 7.81, I: 8.39)

[P] CC(=O)Nc1nc2ccc(-c3ccnc(OCc4cccc(C)c4)n3)cc2s1
[Q] CNc1nc2ccc(-c3cnc(Cl)c(NS(=O)(=O)c4ccc(C(C)(C)NC(C)=O)cc4)c3)cc2s1
[R] CC(=O)Nc1nc2ccc(-c3cncc(NS(=O)(=O)c4ccccc4)c3)cc2s1
[S] Nc1nc2ccc(-c3cccc(NS(=O)(=O)c4ccccc4F)n3)cc2s1
[T] CCc1ccc(S(=O)(=O)Nc2nccc(-c3ccc4nc(NC(C)=O)sc4c3)n2)cc1
Query: Arrange the 5 molecules by rising pIC50, starting with the smallest. Write the labels out in the order the request specifies.
Response: S, P, T, Q, R
(S: 5.64, P: 6.74, T: 7.66, Q: 7.97, R: 8.25)

[P] CC(=O)Nc1nc2ccc(-c3cnc(Cl)c(O[C@H]4CCOC4)c3)cc2s1
[Q] CC(=O)Nc1nc2ccc(-c3cnc(Cl)c(NS(=O)(=O)c4ccc(OC(F)F)cc4)c3)cc2s1
[R] CCCCS(=O)(=O)Nc1cc(-c2ccc3nc(NC(C)=O)sc3c2)cnc1Cl
[S] CC(=O)Nc1nc2ccc(-c3ccnc(OCc4cccnc4)n3)cc2s1
[T] COc1ccc(S(=O)(=O)c2ncc(-c3ccc4nc(NC(C)=O)sc4c3)s2)cc1
Query: Arrange the 5 molecules by rising pIC50, starting with the smallest. Write the labels out in the order the request specifies.
Response: T, S, P, R, Q
(T: 4.41, S: 6.34, P: 6.82, R: 7.97, Q: 8.22)

[A] COc1ccc(S(=O)(=O)Nc2nccc(-c3ccc4nc(NC(C)=O)sc4c3)n2)cc1OC
[B] COc1ccc(S(=O)(=O)c2cncc(-c3ccc4nc(NC(C)=O)sc4c3)n2)cc1
[C] CC(=O)Nc1nc2ccc(-c3cncc(NS(=O)(=O)c4ccc(F)cc4)c3)nc2s1
Query: // sort entries: pIC50, high to low Write the labels out in the order the request specifies.
Response: C, B, A

----------
Test System: PI3K α (Homo sapiens)
Construct: Full length p110 subunits of PI3K α, β and δ, N-terminally labeled with polyHis tag; polyHis (N)
Protocol Description: In vitro PI3 kinase enzyme assay (alpha), ATP loss, bioluminescence
Protocol Conditions: read-out: PI3Kα ATP loss IC50
Value Kind: IC50 (nM)

[1] CC(=O)Nc1nc2ccc(-c3cnc(Cl)c(NS(=O)(=O)c4cccc(OC(F)F)c4)c3)cc2s1
[2] CC(=O)Nc1nc2ccc(-c3cnc(Cl)c(OC(C)C#N)c3)cc2s1 (stereo not shown)
Query: # compare IC50 for 1 vs 2 ; return the one with the smaller value Give the chosen item's label as your response.
Response: 1
(1: 7.2 nM, 2: 111 nM)

[a] CC(=O)Nc1ccc(S(=O)(=O)Nc2nccc(-c3ccc4nc(NC(C)=O)sc4c3)n2)cc1
[b] CC(=O)Nc1nc2ccc(-c3ccnc(OCc4ccccc4)n3)cc2s1
Query: # compare IC50 for a vs b ; return the one with the smaller value Give the chosen item's label as your response.
Response: b
(b: 95.6 nM, a: 319 nM)

----------
Test System: PI3K α (Homo sapiens, UniProt P42336)
Construct: Full length p110 subunits of PI3K α, β and δ, N-terminally labeled with polyHis tag; polyHis (N); made in house; host or cells: Sf9 insect cells (baculovirus)
Sequence (P42336 whole entry, species assumed): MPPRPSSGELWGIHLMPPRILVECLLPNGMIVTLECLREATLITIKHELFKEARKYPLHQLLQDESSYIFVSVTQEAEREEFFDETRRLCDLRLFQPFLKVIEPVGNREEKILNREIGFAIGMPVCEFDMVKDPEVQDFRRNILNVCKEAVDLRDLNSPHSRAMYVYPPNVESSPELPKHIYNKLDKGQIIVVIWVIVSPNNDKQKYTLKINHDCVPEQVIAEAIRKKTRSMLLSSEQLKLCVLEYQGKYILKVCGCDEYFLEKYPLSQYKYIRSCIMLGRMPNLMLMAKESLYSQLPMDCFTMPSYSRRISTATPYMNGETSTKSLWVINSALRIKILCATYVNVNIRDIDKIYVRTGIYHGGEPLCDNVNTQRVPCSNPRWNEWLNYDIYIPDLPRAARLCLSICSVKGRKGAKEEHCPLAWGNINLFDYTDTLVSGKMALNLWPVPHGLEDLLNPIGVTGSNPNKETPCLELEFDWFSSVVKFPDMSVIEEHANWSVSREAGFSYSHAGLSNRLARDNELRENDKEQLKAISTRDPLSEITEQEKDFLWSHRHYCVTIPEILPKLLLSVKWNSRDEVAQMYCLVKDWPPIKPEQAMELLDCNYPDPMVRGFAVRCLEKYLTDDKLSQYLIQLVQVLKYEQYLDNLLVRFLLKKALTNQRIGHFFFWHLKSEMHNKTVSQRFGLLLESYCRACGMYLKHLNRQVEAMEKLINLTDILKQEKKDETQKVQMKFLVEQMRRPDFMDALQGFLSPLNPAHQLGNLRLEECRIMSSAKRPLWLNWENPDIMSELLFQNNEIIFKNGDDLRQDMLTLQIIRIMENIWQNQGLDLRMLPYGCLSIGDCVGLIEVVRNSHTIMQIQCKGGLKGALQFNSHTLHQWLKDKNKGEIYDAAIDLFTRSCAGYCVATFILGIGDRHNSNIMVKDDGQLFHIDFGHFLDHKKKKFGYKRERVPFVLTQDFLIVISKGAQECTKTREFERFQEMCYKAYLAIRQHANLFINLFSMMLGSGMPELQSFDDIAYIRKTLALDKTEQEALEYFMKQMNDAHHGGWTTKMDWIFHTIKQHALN
Sequence (P27986 whole entry partner, species assumed): as the sequence (P27986 whole entry partner) above
Protocol Description: In vitro PI3 kinase enzyme assay (alpha), ATP loss, bioluminescence
Format: biochemical
Protocol Conditions: read-out: PI3Kα ATP loss IC50
Value Kind: IC50 (nM)

[1] CC(=O)Nc1nc2ccc(-c3csc(S(=O)(=O)c4ccc(F)cc4)n3)cc2s1
[2] CC(=O)Nc1nc2ccc(-c3cncc(OCCN4CCC(C)(C)C4=O)c3)cc2s1
[3] CC(=O)Nc1nc2ccc(-c3cccc(S(=O)(=O)c4ccc(F)cc4)n3)cc2s1
[4] Nc1nc2ccc(-c3cnc(Cl)c(NS(=O)(=O)c4ccccc4C(F)(F)F)c3)cc2s1
Query: Sort the listed entries by IC50, smallest first. Write the labels out in the order the request specifies.
Response: 4, 3, 2, 1
(4: 2.5 nM, 3: 258 nM, 2: 2920 nM, 1: 17300 nM)

----------
Test System: PI3K α (Homo sapiens)
Construct: Full length p110 subunits of PI3K α, β and δ, N-terminally labeled with polyHis tag; polyHis (N)
Protocol Description: In vitro PI3 kinase enzyme assay (alpha), ATP loss, bioluminescence
Protocol Conditions: read-out: PI3Kα ATP loss IC50
Value Kind: IC50 (nM)

Some molecules with known IC50 results, for comparison:
{"columns": ["Molecule", "Recorded Measurement"],
 "data": [
  ["CC(=O)Nc1nc2ccc(-c3cnc(C)c(NS(=O)(=O)c4ccccc4F)c3)cc2s1 [Example 112]", 5.5],
  ["CC(=O)Nc1nc2ccc(-c3cncc(OCCN4CCC(F)(F)C4=O)c3)cc2s1 [Example 254]", 1180],
  ["CC(=O)Nc1nc2ccc(-c3ccnc(OCCc4cccnc4)n3)cc2s1 [Example 18]", 1100]
]}

[P] CNc1nc2ccc(-c3cnc(Cl)c(NS(=O)(=O)c4ccc(F)cc4)c3)cc2s1 [Example 317]
[Q] COc1ccc(S(=O)(=O)Nc2cc(-c3ccc4nc(NC(=O)C5CCCCC5)sc4c3)cnc2Cl)cc1 [Example 304]
[R] CCOc1ccc(-c2ccc3nc(NC(C)=O)sc3c2)cn1 [Example 243]
Query: // sort entries: IC50, high to low Write the labels out in the order the request specifies.
Response: R, Q, P
